Each recorded value in this set is attributed to patent US4232010A.

Experiment: Acute toxicity test in mice, intraperitoneal
Conditions: mouse, in vivo, ip, male ddY mice, deaths within 72 hours
Observation type: LD50 at 72 h

1) CCCOP(=O)(Cc1ccc(-c2nc3ccccc3s2)cc1)OCCC = > 2250 mg/kg
2) CC(C)OP(=O)(Cc1ccc(-c2nc3ccccc3s2)nc1)OC(C)C = > 2250 mg/kg
3) CCCCOP(=O)(Cc1ccc(-c2nc3ccccc3s2)cc1)OCCCC = > 2250 mg/kg
